Tested on: Mus musculus
Test: Anticonvulsant activity in ip dosed Mus musculus (mouse) assessed as protection against maximal electroshock-induced seizures administered 30 min prior to electroshock-challenge measured at 4 hr
Assay type: functional
reportedMetric: ED50 (mg/kg)
Give bare numbers, in mg/kg.

INSERT INTO results (entrysmiles, measuredon, unitslabel, recordedresult) VALUES
  ('CCCOc1ccc2c(c1)C(=O)NCCO2', 'Mus musculus', 'mg/kg', 78.3),
  ('O=C1NCCOc2ccc(OCc3ccccc3F)cc21', 'Mus musculus', 'mg/kg', 45.6),
  ('CCCCCCOc1ccc2c(c1)C(=O)NCCO2', 'Mus musculus', 'mg/kg', 47.3);

I have 5 compounds here; please give me ED50 for each one.
1. O=C1NCCOc2ccc(OCc3cccc(F)c3)cc21
2. CCCCCOc1ccc2c(c1)C(=O)NCCO2
3. CCC1(c2ccccc2)C(=O)NC(=O)NC1=O
4. CCCCCCCOc1ccc2c(c1)C(=O)NCCO2
5. O=C1NCCOc2ccc(OCc3ccccc3)cc21

Found:
1: 73.1; 2: 56.8; 3: 21.8; 4: 19; 5: 73.1

---

Tested on: Mus musculus
Assay: Anticonvulsant activity in Mus musculus (mouse) assessed as protection against maximal electroshock-induced seizures at 100 mg/kg, ip administered 30 min prior to electroshock-challenge measured at 4 hr
Format: functional, organism-based
Parameters: dose 100 mg/kg
Activity calls are given as the source filed them. No cut-off for these calls is given here.
Hello, when you answer, please use one of the following outcomes: active, inactive

Record excerpt, results attached:
INSERT INTO measurements (entrysmiles, classassignment) VALUES
  ('O=C1NCCOc2ccc(OCc3ccc(Cl)cc3)cc21', 'inactive'),
  ('CCCCCCCCOc1ccc2c(c1)C(=O)NCCO2', 'inactive'),
  ('O=C1NCCOc2ccc(OCc3cccc(F)c3)cc21', 'inactive');

Lookup: Hi, do you know how COc1ccc(COc2ccc3c(c2)C(=O)NCCO3)cc1OC came out in this test?
Found: inactive

Lookup: # iterate: O=C1NCCOc2ccc(OCc3cccc(Cl)c3)cc21
Found: inactive

Lookup: # iterate: O=C1NCCOc2ccc(OCc3ccccc3F)cc21
Found: inactive

Lookup: # iterate: CCCCOc1ccc2c(c1)C(=O)NCCO2
Found: active

Lookup: # iterate: COc1ccc(COc2ccc3c(c2)C(=O)NCCO3)cc1
Found: inactive

---

Assay: Neurotoxicity against ip dosed Mus musculus (mouse) by rotarod test
Type: toxicity, organism-based
Details: in vivo
reportedMetric: TD50 (mg/kg)
Numbers only, in mg/kg.

The following compounds have reported results that may help.
INSERT INTO measurements (entrysmiles, recordedresult) VALUES
  ('CCCOc1ccc2c(c1)C(=O)NCCO2', 170),
  ('CCCCCOc1ccc2c(c1)C(=O)NCCO2', 106),
  ('CCCCCCCOc1ccc2c(c1)C(=O)NCCO2', 47.3);

I have 4 compounds here; please give me TD50 for each one.
1. O=C1NCCOc2ccc(OCc3cccc(F)c3)cc21
2. CCCCCCOc1ccc2c(c1)C(=O)NCCO2
3. O=C1NCCOc2ccc(OCc3ccccc3F)cc21
4. O=C1NCCOc2ccc(OCc3ccccc3)cc21

Found:
1. 73.1
2. 106
3. 52.8
4. 76.2

---

Tested on: Mus musculus
Experiment: Anticonvulsant activity in Mus musculus (mouse) assessed as protection against maximal electroshock-induced seizures at 100 mg/kg, ip administered 30 min prior to electroshock-challenge measured at 4 hr
Format: functional, organism-based
Parameters: dose 100 mg/kg
Active and inactive are the calls of the source. No cut-off for these calls is given here.
reportedMetric: Activity

INSERT INTO results (entrysmiles, recordedresult) VALUES
  ('CCOc1ccc2c(c1)C(=O)NCCO2', 'inactive'),
  ('Cc1ccc(COc2ccc3c(c2)C(=O)NCCO3)cc1', 'inactive'),
  ('CCCOc1ccc2c(c1)C(=O)NCCO2', 'inactive');
